biological target: Receptor tyrosine-protein kinase erbB-2 (Homo sapiens) (UniProt P04626); settings: at 0.1 µM;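 note: each value is the mean percent inhibition of ERBB2 over replicate measurements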
Sequence (P04626 whole entry): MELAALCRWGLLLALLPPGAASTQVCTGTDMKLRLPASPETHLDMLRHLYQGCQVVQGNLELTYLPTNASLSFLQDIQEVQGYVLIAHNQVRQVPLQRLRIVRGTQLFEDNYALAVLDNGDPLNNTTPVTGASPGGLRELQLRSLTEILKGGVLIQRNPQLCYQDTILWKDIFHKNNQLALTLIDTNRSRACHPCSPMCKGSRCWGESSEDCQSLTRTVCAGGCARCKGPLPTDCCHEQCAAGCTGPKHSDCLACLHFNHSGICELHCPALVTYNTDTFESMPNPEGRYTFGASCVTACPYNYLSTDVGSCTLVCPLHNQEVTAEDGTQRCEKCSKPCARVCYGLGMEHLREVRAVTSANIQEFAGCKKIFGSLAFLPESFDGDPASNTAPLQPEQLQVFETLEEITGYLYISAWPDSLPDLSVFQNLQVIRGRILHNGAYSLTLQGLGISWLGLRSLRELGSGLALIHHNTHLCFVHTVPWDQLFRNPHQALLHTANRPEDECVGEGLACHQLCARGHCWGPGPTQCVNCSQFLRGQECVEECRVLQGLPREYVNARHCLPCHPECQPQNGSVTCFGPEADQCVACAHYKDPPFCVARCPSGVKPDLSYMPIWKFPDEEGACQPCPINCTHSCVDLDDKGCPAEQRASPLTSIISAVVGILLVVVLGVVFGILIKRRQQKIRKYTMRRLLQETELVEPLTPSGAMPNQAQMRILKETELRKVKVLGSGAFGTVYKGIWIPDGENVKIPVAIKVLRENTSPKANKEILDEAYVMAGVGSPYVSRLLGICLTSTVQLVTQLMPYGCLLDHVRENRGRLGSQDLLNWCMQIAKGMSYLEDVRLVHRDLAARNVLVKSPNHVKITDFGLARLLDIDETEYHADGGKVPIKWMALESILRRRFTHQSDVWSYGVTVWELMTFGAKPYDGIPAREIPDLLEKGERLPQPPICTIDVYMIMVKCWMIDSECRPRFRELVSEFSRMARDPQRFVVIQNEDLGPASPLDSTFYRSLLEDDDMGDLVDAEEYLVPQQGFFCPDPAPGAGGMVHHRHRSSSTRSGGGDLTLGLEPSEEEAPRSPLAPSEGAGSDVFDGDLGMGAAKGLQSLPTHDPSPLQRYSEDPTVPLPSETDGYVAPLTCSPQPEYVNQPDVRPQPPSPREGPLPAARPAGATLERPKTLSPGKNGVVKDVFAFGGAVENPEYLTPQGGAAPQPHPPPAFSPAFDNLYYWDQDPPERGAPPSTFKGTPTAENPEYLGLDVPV
# reported inhibition; entries follow
Lab book: enter the figure in %, no units written.

CCn1c(-c2nonc2N)nc2c(C#CC(C)(C)O)nc(OC[C@H](N)c3ccccc3)cc21: 0.79
COc1cc2c(cc1Nc1nc(Nc3ccsc3C(N)=O)c3cc[nH]c3n1)N(C(=O)CN(C)C)CCC2(C)C: 2.91
Fc1ccc(-c2nn3ncccc3c2-c2ccnc(Nc3ccc4c(c3)OCCO4)n2)cc1: 11
CCN1CCC(CC(=O)Nc2n[nH]c3nnc(-c4cccc(F)c4F)cc23)CC1: 2.4
COc1ccc(-c2cc(-c3c[nH]nc3-c3ccccn3)ccn2)cc1: 2.88
CCCN1CCC(c2ccc(Nc3nc(Nc4cc(F)ccc4C(N)=O)c4cc[nH]c4n3)c(OC)c2)CC1: 5.68

Notebook entry, Receptor tyrosine-protein kinase erbB-2 (Homo sapiens) (UniProt P04626) assay: inhibition of `COc1ccc2[nH]c3c4[nH]c5ccc(OC)cc5c4c4c(c3c2c1)C(=O)NC4=O` = ?
1.76

Notebook entry, Receptor tyrosine-protein kinase erbB-2 (Homo sapiens) (UniProt P04626) assay: inhibition of `Cc1ccc2c(-c3ccnc(Nc4ccccc4)n3)c(-c3ccc(F)cc3)nn2n1` = ?
3.68

Notebook entry, Receptor tyrosine-protein kinase erbB-2 (Homo sapiens) (UniProt P04626) assay: inhibition of `Cc1ccc(O)cc1Nc1ccnc2cc(-c3ccccn3)ccc12` = ?
2.16

Notebook entry, Receptor tyrosine-protein kinase erbB-2 (Homo sapiens) (UniProt P04626) assay: inhibition of `CS(=O)(=O)CCNCc1coc(-c2ccc3ncnc(Nc4ccc(OCc5ccccc5)cc4)c3c2)c1` = ?
6.1

Notebook entry, Receptor tyrosine-protein kinase erbB-2 (Homo sapiens) (UniProt P04626) assay: inhibition of `CCn1cc(-c2ccnc3[nH]ccc23)c(-c2cccc(NC(=O)Nc3ccc(OCc4ccccc4)cc3)c2)n1` = ?
2.85

Notebook entry, Receptor tyrosine-protein kinase erbB-2 (Homo sapiens) (UniProt P04626) assay: inhibition of `c1ccc(-c2nc3n(c2-c2ccc4c(c2)OCO4)CCC3)nc1` = ?
1.28

Notebook entry, Receptor tyrosine-protein kinase erbB-2 (Homo sapiens) (UniProt P04626) assay: inhibition of `O=S(=O)(CCNCc1ccc(-c2ccc3ncnc(Nc4ccc(OCc5cccc(F)c5)c(Cl)c4)c3c2)o1)c1ccccc1` = ?
43.9

Notebook entry, Receptor tyrosine-protein kinase erbB-2 (Homo sapiens) (UniProt P04626) assay: inhibition of `CNC(=O)c1cncc(/C=C/c2ccccc2Cl)c1` = ?
0.54

Notebook entry, Receptor tyrosine-protein kinase erbB-2 (Homo sapiens) (UniProt P04626) assay: inhibition of `Cc1cccc(Nc2ncc(-c3ccccc3)o2)c1` = ?
2.48

Notebook entry, Receptor tyrosine-protein kinase erbB-2 (Homo sapiens) (UniProt P04626) assay: inhibition of `[O-][S+]1CCN(Cc2ccc(-c3ccc4ncnc(Nc5ccc(OCc6cccc(F)c6)c(Cl)c5)c4c3)o2)CC1` = ?
78.4

Notebook entry, Receptor tyrosine-protein kinase erbB-2 (Homo sapiens) (UniProt P04626) assay: inhibition of `COc1ccc(-c2nn3ncccc3c2-c2ccnc(Nc3ccc4c(c3)OCCO4)n2)cc1` = ?
0.95

Notebook entry, Receptor tyrosine-protein kinase erbB-2 (Homo sapiens) (UniProt P04626) assay: inhibition of `CC(=O)NCc1cccc(C#Cc2cncnc2Nc2ccc(OCc3cccc(F)c3)c(Cl)c2)c1` = ?
-0.95

Notebook entry, Receptor tyrosine-protein kinase erbB-2 (Homo sapiens) (UniProt P04626) assay: inhibition of `CCNC(=O)O[C@H]1CN[C@H](C#Cc2cc3ncnc(Nc4ccc(OCc5cccc(F)c5)c(Cl)c4)c3s2)C1` = ?
8.63

Notebook entry, Receptor tyrosine-protein kinase erbB-2 (Homo sapiens) (UniProt P04626) assay: inhibition of `CNC(=O)c1cccc(C#Cc2cncnc2Nc2ccc(OCc3cccc(F)c3)c(Cl)c2)c1` = ?
-1.06

Notebook entry, Receptor tyrosine-protein kinase erbB-2 (Homo sapiens) (UniProt P04626) assay: inhibition of `COc1ccc(-c2oc3ncnc(N)c3c2-c2ccc(NC(=O)Nc3cc(C(F)(F)F)ccc3F)cc2)cc1` = ?
4.07

Notebook entry, Receptor tyrosine-protein kinase erbB-2 (Homo sapiens) (UniProt P04626) assay: inhibition of `COc1ccc(-c2cc3c(N)ncnc3o2)cc1` = ?
-0.84
